# Test system: P12-Ichikawa
# protocol description: cell viability relative to DMSO control; higher = less cytotoxic
# reported conditions: HPLM + 10% dialyzed FBS; 48 h; 0.00234 µM
Here the recorded cell viability is given for each entry.
Provide the reading as a plain figure in %.

Field: example entries. Status: answers known.
CC(=O)N1CCN(c2ccc(OC[C@H]3CO[C@](Cn4ccnc4)(c4ccc(Cl)cc4Cl)O3)cc2)CC1 = 120
CCOC(=O)N1CCN(/[N+]([O-])=N/Oc2ccc([N+](=O)[O-])cc2[N+](=O)[O-])CC1 = 94.7
Cc1cccc(C)c1OCC(=O)N[C@@H](Cc1ccccc1)[C@@H](O)C[C@H](Cc1ccccc1)NC(=O)[C@H](C(C)C)N1CCCNC1=O = 96.1
[NH2][Pt]([NH2])([Cl])[Cl] = 105
Oc1ccc(C2CCN(c3ccnc4ccccc34)CC2)cc1O = 118

Exam item: Bench note: what cell viability did CC(C)n1nc(-c2ccc3oc(N)nc3c2)c2c(N)ncnc21 show?
Marked response: 91

Exam item: Same read-out for CC(=O)C\1=C(/C)C2=CN=C(NC3=CC=C(C=N3)N4CCNCC4)N=C2N(C5CCCC5)C1=O ?
Marked response: 121

Exam item: Same read-out for CN(C)C(=O)c1ccc([S+](=O)([O-])c2ccc(NC(=O)[C@@](C)(O)C(F)(F)F)c(Cl)c2)cc1 ?
Marked response: 111
